Where do these numbers come from? They come from patent US6559157B2.

- tested.on: Aromatase (Homo sapiens, UniProt P11511)
- Sequence (P11511 1-503): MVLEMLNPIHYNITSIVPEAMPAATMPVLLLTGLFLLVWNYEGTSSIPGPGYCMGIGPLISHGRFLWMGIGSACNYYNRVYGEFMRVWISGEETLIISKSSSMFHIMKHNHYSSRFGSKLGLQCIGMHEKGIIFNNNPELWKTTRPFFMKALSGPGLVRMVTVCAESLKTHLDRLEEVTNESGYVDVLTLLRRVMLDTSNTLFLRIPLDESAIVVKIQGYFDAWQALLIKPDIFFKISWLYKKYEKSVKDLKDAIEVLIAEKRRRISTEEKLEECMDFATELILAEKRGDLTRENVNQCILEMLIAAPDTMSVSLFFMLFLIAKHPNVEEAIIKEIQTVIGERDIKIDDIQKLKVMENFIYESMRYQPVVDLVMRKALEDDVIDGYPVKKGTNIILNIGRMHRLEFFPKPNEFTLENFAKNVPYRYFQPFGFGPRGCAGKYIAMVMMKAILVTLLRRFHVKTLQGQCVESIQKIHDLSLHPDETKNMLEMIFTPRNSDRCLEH
Entries annotated with measured IC50
measurement.type: IC50 (nM)

{"smiles.input": "CCC1=C(Cc2ccncc2)CCc2ccc(OC)cc21", "tested.on": "Aromatase (Homo sapiens, UniProt P11511)", "experimental.result": 1300}
{"smiles.input": "CC1=C(Cc2ccncc2)CCc2c(O)cccc21", "tested.on": "Aromatase (Homo sapiens, UniProt P11511)", "experimental.result": 700}
{"smiles.input": "CCCC1=C(Cc2ccncc2)CCc2cc(OC)ccc21", "tested.on": "Aromatase (Homo sapiens, UniProt P11511)", "experimental.result": 860}
{"smiles.input": "CC1=C(Cc2ccncc2)CCc2cc(O)ccc21", "tested.on": "Aromatase (Homo sapiens, UniProt P11511)", "experimental.result": 1300}
{"smiles.input": "CC1=C(Cc2ccncc2)CCc2ccccc21", "tested.on": "Aromatase (Homo sapiens, UniProt P11511)", "experimental.result": 230}
